METHOD_NOTES: Cytotoxicity against HIV-1 3B infected human MT4 cells
Format: cell-based
MEASUREMENT_CONDITIONS: HIV-1 3B-infected MT4 cells
ENDPOINT_NAME: CC50 (µg/mL)
One number for each entry, in µg/mL.

// worked examples, CC50 included
> print(dat)
                        structure.as.smiles  recorded.number
1  C=CCNC(=S)Nc1ccc(NS(C)(=O)=O)c(Oc2ccccc2)c1              101
2  CS(=O)(=O)Nc1ccc(NC(=S)NC2CCCCC2)cc1Oc1ccccc1             35.3

Next compound, please.
(Q) Fill in the blank: the reported CC50 of `CCCNC(=S)Nc1ccc(NS(C)(=O)=O)c(Oc2ccccc2)c1` is ____.
(A) 89.3

###

METHOD_NOTES: Cytotoxicity against Cytomegalovirus infected HEL cells assessed as change in cell morphology
Format: cell-based
MEASUREMENT_CONDITIONS: human
ENDPOINT_NAME: CC50 (µg/mL)
Give bare numbers, in µg/mL.

# annotated cases, reported CC50 shown
> print(dat)
                                   compound  endpoint.name  recorded.number
1  CS(=O)(=O)Nc1ccc(NC(=S)NCc2ccccc2)cc1Oc1ccccc1           CC50               20
2  Nc1ccn(C[C@@H](CO)OCP(=O)(O)O)c(=O)n1.O.O [CIDOFOVIR]           CC50              400
3  CS(=O)(=O)Nc1ccc(NC(=S)NCCc2ccccc2)cc1Oc1ccccc1           CC50              100
4  Nc1nc2c(ncn2COC(CO)CO)c(=O)[nH]1 [GANCICLOVIR]           CC50              400

// next entry
(Q) Please give the measured CC50 for this compound: `CS(=O)(=O)Nc1ccc(NC(=S)NC2CCCCC2)cc1Oc1ccccc1`
(A) 20

###

METHOD_NOTES: Cytotoxicity against Cytomegalovirus infected HEL cells assessed as reduction in cell growth
Assay type: cell-based
MEASUREMENT_CONDITIONS: human
For each record, write down the corresponding CC50.
Answers are plain numbers, in µg/mL.

// solved cases for CC50 follow
> print(dat)
                        structure.as.smiles  endpoint.name  recorded.number
1  CS(=O)(=O)Nc1ccc(NC(=S)NCCc2ccccc2)cc1Oc1ccccc1           CC50               48
2  Nc1ccn(C[C@@H](CO)OCP(=O)(O)O)c(=O)n1.O.O           CC50               57

Kindly give each listed record's CC50.
1. CS(=O)(=O)Nc1ccc(NC(=S)NCc2ccccc2)cc1Oc1ccccc1
2. CCCNC(=S)Nc1ccc(NS(C)(=O)=O)c(Oc2ccccc2)c1
3. CS(=O)(=O)Nc1ccc(NC(=S)NC2CCCCC2)cc1Oc1ccccc1

(A)
1. 45.2
2. 56
3. 33.6

Items follow; give CC50 for each.
1. Nc1nc2c(ncn2COC(CO)CO)c(=O)[nH]1
2. C=CCNC(=S)Nc1ccc(NS(C)(=O)=O)c(Oc2ccccc2)c1

(A)
80
82.4

###

Assignment: determine reported MIC50 for the given molecules.
Test system: Coxsackievirus B4
METHOD_NOTES: Antiviral activity against Coxsackievirus B4 infected in african green monkey Vero cells assessed as protection against virus-induced cytopathogenicity
Assay type: functional
MEASUREMENT_CONDITIONS: Enterovirus B

> print(dat)
                                   molecule       result
1  CS(=O)(=O)Nc1ccc(NC(=S)NCc2ccccc2)cc1Oc1ccccc1    > 8 µg/mL
2      Nc1ncnc2c1ncn2C[C@H](O)CO [(S)-DHPA]  > 250 µg/mL
3  C=CCNC(=S)Nc1ccc(NS(C)(=O)=O)c(Oc2ccccc2)c1   > 40 µg/mL

Each molecule below has a recorded value; state its MIC50.
1. O=c1[nH]c(=O)n([C@H]2C[C@H](O)[C@@H](CO)O2)cc1/C=C/Br [BRIVUDINE]
2. CS(=O)(=O)Nc1ccc(NC(=S)NCCc2ccc(Cl)cc2)cc1Oc1ccccc1
3. CS(=O)(=O)Nc1ccc(NC(=S)NCCc2ccccc2)cc1Oc1ccccc1
4. CS(=O)(=O)Nc1ccc(NC(=S)Nc2ccc([N+](=O)[O-])cc2)cc1Oc1ccccc1
5. CS(=O)(=O)Nc1ccc(NC(=S)NC2CCCCC2)cc1Oc1ccccc1
6. NC(=O)c1ncn([C@@H]2O[C@H](CO)[C@@H](O)[C@H]2O)n1 [RIBAVIRIN]
7. CCCNC(=S)Nc1ccc(NS(C)(=O)=O)c(Oc2ccccc2)c1
8. CCNC(=S)Nc1ccc(NS(C)(=O)=O)c(Oc2ccccc2)c1

(A)
1: > 250 µg/mL; 2: > 20 µg/mL; 3: > 1.6 µg/mL; 4: > 8 µg/mL; 5: > 1.6 µg/mL; 6: > 250 µg/mL; 7: > 8 µg/mL; 8: > 40 µg/mL

(Q) Could you share which MIC50 value was measured for `CNC(=S)Nc1ccc(NS(C)(=O)=O)c(Oc2ccccc2)c1` ?
(A) > 100 µg/mL

These entries and their values trace back to ChEMBL document CHEMBL1153581.
